- assay_notes: NCI Yeast Anticancer Drug Screen. Data for the rad50 strain (AID 155);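 note: 0% = growth of vehicle-only cultures of the same strain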
- settings: S. cerevisiae rad50 strain growth inhibition; at 50.0 µM; active compounds read high
About 79,000 compounds went through this panel and 15% of them were active in at least one assay; those are over-represented in the sample as a whole.
Please provide measured growth inhibition for the entries that follow.
Expressed in %, but write only the number.

Could you share which growth inhibition value was measured for "CN(C)C(=O)CCOc1cccc2ccccc12" ?
16.6

Now try CC1OC(n2cc(F)c(=O)[nH]c2=O)CCC1O (configuration not stated) .
7

Field entry: CCC(CCC(=O)O)C1CCCCC1 (configuration not stated)
29.1

Same read-out for "CC1(C)N=C(N)N=C(N)N1c1cccc(OCCCOc2ccc([N+](=O)[O-])cc2)c1" ?
-31.9

Another molecule: "CCOc1cccc(N)c1"
-69.2

Item: c1ccc(C(Sc2c[nH]c3ccccc23)(c2ccccc2)c2ccccc2)cc1 (tested in a mixture with another compound)
-20.4

Okay, and "Clc1cc(Cl)cc(C=NC23CC4CC(CC(C4)C2)C3)c1" ?
-13.8

Next molecule up: CCOC(=O)C(CS(=O)(=O)N(CC)CC)NC(=O)c1ccccc1 (configuration not stated)
-1.4

And then "CCCN(CCC)C1=Nc2ccccc2-n2cnnc2C1" , what is it?
-22.4

And for CC1NC(=O)CC(c2ccccc2)N(N=O)C1c1ccccc1 (configuration not stated) ?
-53.5

Next record, please: "O=c1[nH]c2cc(Cl)ccc2nc1/C=C(\O)c1ccc(F)cc1"
23.1

Can you handle "NNC(=S)N/N=C/c1ccco1" next?
-9.6
